B1: His-tag-attached wild-type Hydrogenobacter thermophilus cytochrome c552, holo protein [modified: heme c attached (holo protein); heme c attached (holo protein)] [Hydrogenobacter thermophilus] / itself (parent)
chain: NEQLAKQKGCMACHDLKAKKVGPAYADVAKKYAGRKDAVDYLAGKIKKGGSGVWGSVPMPPQNVTDAEAKQLAQWILSIK

variants of: B1; assay: Ni affinity chromatography (peak areas); conditions: with itself; protein obtained from E. coli cells; read off a plot
measure: screen value (%)
// return numeric value only (unit: %, not printed)

>>> data_value("chain 1 Y32F Y41E")
13
>>> data_value("chain 1 A5F M11V Y32F Y41E I76V")
6.2
>>> data_value("chain 1 A5F M11V")
3

Below: the item to evaluate.
Problem: Query: screen value; subject: chain 1 I76V
Solution: 5.5
